Test: Plasma pharmacokinetics of sunitinib and N-desethyl sunitinib
Format: in vivo, human
Conditions: human, plasma, oral, 50 mg/day
measured_attribute: Tmax (h)
Write the value in h as a bare number.

Request: Looking for the measured Tmax of CCN(CC)CCNC(=O)c1c(C)[nH]c(/C=C2\C(=O)Nc3ccc(F)cc32)c1C [sunitinib, Sunitinib malate] , can you help?
Response: 7.5

* * *

Experiment: Plasma pharmacokinetics of sunitinib and N-desethyl sunitinib
Assay type: in vivo, human
Details: human, in vivo, 37.5 mg/day
measured_attribute: AUC(0-t)
Field: value (include unit after the number)

Request: Can you look up the measured AUC(0-t) of CCN(CC)CCNC(=O)c1c(C)[nH]c(/C=C2\C(=O)Nc3ccc(F)cc32)c1C [sunitinib, Sunitinib malate] for me?
Response: 338 ng·h/mL
